# tested.on: Serine/threonine-protein kinase 3 (Homo sapiens) (UniProt Q13188)
# Sequence (Q13188 whole entry): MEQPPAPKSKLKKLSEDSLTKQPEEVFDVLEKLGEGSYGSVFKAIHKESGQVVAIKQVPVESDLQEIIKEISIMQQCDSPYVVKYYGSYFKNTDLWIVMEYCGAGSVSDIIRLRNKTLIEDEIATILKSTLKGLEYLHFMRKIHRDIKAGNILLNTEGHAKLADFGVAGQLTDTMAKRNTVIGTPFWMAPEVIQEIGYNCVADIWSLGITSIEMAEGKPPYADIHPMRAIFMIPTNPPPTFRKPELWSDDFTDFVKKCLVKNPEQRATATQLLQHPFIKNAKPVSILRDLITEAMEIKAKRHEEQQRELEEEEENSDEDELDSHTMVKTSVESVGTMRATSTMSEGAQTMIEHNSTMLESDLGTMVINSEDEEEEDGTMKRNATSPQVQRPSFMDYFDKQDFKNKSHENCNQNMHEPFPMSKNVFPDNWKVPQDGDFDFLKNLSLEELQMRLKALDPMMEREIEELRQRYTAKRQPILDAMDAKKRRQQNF
# condition.parameters: at 0.1 µM
recorded.endpoint: inhibition (%)
Give the number; % is assumed, so skip it.

Cn1c(-c2nonc2N)nc2cnccc21 4.04
COC(=O)Nc1nc2ccc(Oc3ccc(NC(=O)Nc4cc(C(F)(F)F)ccc4F)cc3)cc2s1 -0.86

Now for the compound whose inhibition we want.
Given `CS(=O)(=O)CCNCc1ccc(-c2ccc3ncnc(Nc4ccc(OCc5cccc(C(F)(F)F)c5)cc4)c3c2)o1` , state its recorded inhibition.
4.6

----------
# Test system: Mast/stem cell growth factor receptor Kit (Homo sapiens), P10721 [V560G]
# Sequence (P10721 whole entry V560G): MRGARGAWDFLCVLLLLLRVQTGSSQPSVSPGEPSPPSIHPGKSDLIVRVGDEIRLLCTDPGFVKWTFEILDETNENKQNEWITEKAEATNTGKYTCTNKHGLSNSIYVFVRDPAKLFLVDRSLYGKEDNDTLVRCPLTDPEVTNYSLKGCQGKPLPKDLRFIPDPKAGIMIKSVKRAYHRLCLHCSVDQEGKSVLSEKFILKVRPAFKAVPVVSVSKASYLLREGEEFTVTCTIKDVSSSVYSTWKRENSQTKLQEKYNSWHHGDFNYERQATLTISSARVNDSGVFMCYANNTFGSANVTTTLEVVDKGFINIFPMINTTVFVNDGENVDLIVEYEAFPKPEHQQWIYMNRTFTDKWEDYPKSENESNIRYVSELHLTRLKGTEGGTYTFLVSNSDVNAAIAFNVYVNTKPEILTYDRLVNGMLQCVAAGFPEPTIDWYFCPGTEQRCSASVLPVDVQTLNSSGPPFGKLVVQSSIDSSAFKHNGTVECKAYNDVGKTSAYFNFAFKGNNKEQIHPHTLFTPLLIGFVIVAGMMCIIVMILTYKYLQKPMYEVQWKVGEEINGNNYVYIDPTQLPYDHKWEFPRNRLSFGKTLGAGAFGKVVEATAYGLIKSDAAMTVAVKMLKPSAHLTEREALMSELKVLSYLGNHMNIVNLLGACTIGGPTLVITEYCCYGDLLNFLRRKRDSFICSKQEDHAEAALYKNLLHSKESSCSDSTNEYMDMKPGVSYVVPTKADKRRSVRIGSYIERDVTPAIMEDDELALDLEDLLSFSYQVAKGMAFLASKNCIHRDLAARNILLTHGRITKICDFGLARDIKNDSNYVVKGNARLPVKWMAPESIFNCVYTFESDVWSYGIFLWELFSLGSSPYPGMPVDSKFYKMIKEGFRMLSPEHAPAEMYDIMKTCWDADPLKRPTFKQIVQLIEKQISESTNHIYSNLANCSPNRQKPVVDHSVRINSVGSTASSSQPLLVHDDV
# condition.parameters: at 0.1 µM
recorded.endpoint: inhibition (%)
The response must be a number in % with no trailing unit.

# inhibition lookup, item `O=C(O[C@H]1CN[C@H](C#Cc2cc3ncnc(Nc4ccc(OCc5cccc(F)c5)c(Cl)c4)c3s2)C1)N1CCOCC1`
-2.49

What do you get for `CS(=O)(=O)Nc1ccc(-c2ccc3c(NC(=O)C4CC4)n[nH]c3c2)cc1` ?
0.02

Entry `COc1ccccc1-c1cc(/C=C2\C(=O)Nc3ncc(Br)cc32)cc(Br)c1O` please
1.58

Proceed to `OCCCNc1nccc(-c2c(-c3ccc(F)cc3)nn3cc(C(F)(F)F)ccc23)n1`
-1.46

// same read-out, input: `Cc1cc(O)cc(C)c1/C=C/c1cncc(C(=O)OC(C)(C)C)c1`
2.94

Could you do the same for `O=C(O[C@H]1CN[C@H](C#Cc2cc3ncnc(Nc4ccc5c(ccn5Cc5cc(F)ccc5F)c4)c3s2)C1)N1CCOCC1` , please?
-0.88

Record: `Cc1cc(O)cc(C)c1/C=C/c1cncc(C(N)=O)c1`
2.69

Also check `FC(F)(F)CNc1nccc(-c2cnn3ncccc23)n1`
-2.94

And what about the molecule `NC(=O)c1ccc2c(-c3ccnc(NCCCO)n3)c(-c3ccc(F)cc3)nn2c1` ?
-0.84
